Give measured pEC50 for each item. Keep answers brief.
Target: Retinoic acid receptor RXR-alpha (Homo sapiens, UniProt P19793)
Sequence (P19793 whole entry, the tested form may be a part): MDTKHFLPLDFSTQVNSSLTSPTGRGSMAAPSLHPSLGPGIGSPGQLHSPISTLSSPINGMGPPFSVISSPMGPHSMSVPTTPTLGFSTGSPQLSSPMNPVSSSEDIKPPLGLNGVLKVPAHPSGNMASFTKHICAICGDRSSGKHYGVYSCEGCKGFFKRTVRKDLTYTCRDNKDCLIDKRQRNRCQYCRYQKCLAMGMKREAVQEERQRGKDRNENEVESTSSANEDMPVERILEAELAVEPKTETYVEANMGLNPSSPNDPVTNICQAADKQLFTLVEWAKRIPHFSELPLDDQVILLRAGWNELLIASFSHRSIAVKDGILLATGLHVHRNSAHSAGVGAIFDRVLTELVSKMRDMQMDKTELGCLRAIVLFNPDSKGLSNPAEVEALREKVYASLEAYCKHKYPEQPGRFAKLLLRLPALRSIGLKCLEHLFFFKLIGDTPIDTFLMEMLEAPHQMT
Assay: Agonist activity at histidine-tagged ligand binding domain of human RXRalpha expressed in Escherichia coli BL21 (DE3) by luciferase reporter gene assay
One number for each entry, as −log10 of the molar value.

Reference set (3 entries):
> print(dat)
                                   molecule  measured.value
1  CC1(C)CCC(C)(C)c2cc3c(cc21)O[C@H]1CCCCC[C@@]31c1ccc(C(=O)O)cc1 (racemic)            6.90
2  CC1(C)CCC(C)(C)c2cc3c(cc21)O[C@H]1CCC[C@@]31c1ccc(C(=O)O)cc1            6.00
3  CC1(C)CCC(C)(C)c2cc3c(cc21)O[C@@H]1CCCC[C@]31c1ccc(C(=O)O)cc1            7.70

Task: // map CC1(C)CCC(C)(C)c2cc3c(cc21)O[C@@H]1CCC[C@]31c1ccc(C(=O)O)cc1 to recorded pEC50 (system: Retinoic acid receptor RXR-alpha (Homo sapiens, UniProt P19793))
Output: 8.20
